List of normalized RNA/DNA level without ligand (log10) values.
B1: library; a variant is named by its letters at N, in order (parent)
chain: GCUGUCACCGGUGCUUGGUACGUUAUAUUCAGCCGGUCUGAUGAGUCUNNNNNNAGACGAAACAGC

Variants of: B1
Assay: normalized RNA/DNA level without ligand (relative to sTRSVctl = 100) (log10 (% of sTRSVctl)); HEK293T overexpressing SLC46A1; higher = less ribozyme self-cleavage, higher mRNA level
Settings: without (6R,S)-folinic acid; ligand present: no
endpointLabel: normalized RNA/DNA level without ligand (log10)

[[record]]
variantid = "UACUGA"
quantitativeresult = 1.92

[[record]]
variantid = "CAGAGC"
quantitativeresult = 2.01

[[record]]
variantid = "GCACGU"
quantitativeresult = 1.99

[[record]]
variantid = "UGGGCG"
quantitativeresult = 1.79

[[record]]
variantid = "GCUCCU"
quantitativeresult = 2.09

[[record]]
variantid = "AGCGCA"
quantitativeresult = 2.01

[[record]]
variantid = "AACAUG"
quantitativeresult = 1.96

[[record]]
variantid = "CGGGCU"
quantitativeresult = 2.09

[[record]]
variantid = "GAUUAU"
quantitativeresult = 1.97

[[record]]
variantid = "AAAGCA"
quantitativeresult = 1.97

[[record]]
variantid = "CAACCU"
quantitativeresult = 2.05

[[record]]
variantid = "GUUCUU"
quantitativeresult = 2.04

[[record]]
variantid = "CAAGUA"
quantitativeresult = 1.99

[[record]]
variantid = "AACGAG"
quantitativeresult = 1.82

[[record]]
variantid = "ACUGUG"
quantitativeresult = 1.85

[[record]]
variantid = "GGGGCA"
quantitativeresult = 2.05

[[record]]
variantid = "ACUAAC"
quantitativeresult = 2

[[record]]
variantid = "UCCCAA"
quantitativeresult = 1.98

[[record]]
variantid = "GGCGCC"
quantitativeresult = 2.09

[[record]]
variantid = "CUUUUA"
quantitativeresult = 1.99

[[record]]
variantid = "UCCAAC"
quantitativeresult = 2.07

[[record]]
variantid = "UGAGUC"
quantitativeresult = 2.01

[[record]]
variantid = "AGAAGU"
quantitativeresult = 1.94

[[record]]
variantid = "CCUACG"
quantitativeresult = 2.07

[[record]]
variantid = "UGGCGU"
quantitativeresult = 1.99

[[record]]
variantid = "GACCUU"
quantitativeresult = 2.08

[[record]]
variantid = "GCGAGG"
quantitativeresult = 1.98

[[record]]
variantid = "GUUUGC"
quantitativeresult = 1.95

[[record]]
variantid = "GUGCGA"
quantitativeresult = 2

[[record]]
variantid = "GCUUGC"
quantitativeresult = 2.05

[[record]]
variantid = "UGGUAU"
quantitativeresult = 1.93

[[record]]
variantid = "UUCAUU"
quantitativeresult = 2.03

[[record]]
variantid = "CCGGGC"
quantitativeresult = 2.1

[[record]]
variantid = "GACGGC"
quantitativeresult = 2.03

[[record]]
variantid = "ACGUGC"
quantitativeresult = 2.03

[[record]]
variantid = "ACUGGC"
quantitativeresult = 2.04

[[record]]
variantid = "GCGAAC"
quantitativeresult = 1.95

[[record]]
variantid = "GAAGGG"
quantitativeresult = 1.87

[[record]]
variantid = "CGAGUU"
quantitativeresult = 2

[[record]]
variantid = "UCGAUA"
quantitativeresult = 1.99

[[record]]
variantid = "UAAGCA"
quantitativeresult = 1.94

[[record]]
variantid = "CCUUCU"
quantitativeresult = 2.01

[[record]]
variantid = "CAUCCU"
quantitativeresult = 2.06

[[record]]
variantid = "UAUCGU"
quantitativeresult = 1.95

[[record]]
variantid = "AGAUAU"
quantitativeresult = 1.97

[[record]]
variantid = "CAGAAC"
quantitativeresult = 2


Where do the numbers come from? From the supplement of paper PMC6757056.
